biological target: K-Ras G13C (Homo sapiens (Human), UniProt P01116+P62937, G13C); experiment: Ras-Raf (BRAF RBD) disruption / FRET / MOA assay, KRAS G13C; format: biochemical; settings: KRAS G13C; Ras-Raf disruption/FRET/MOA assay; read-out: IC50* KRAS G13C FRET data
Sequence (P01116-2 other isoform, or with tags, fused parts or gaps G13C): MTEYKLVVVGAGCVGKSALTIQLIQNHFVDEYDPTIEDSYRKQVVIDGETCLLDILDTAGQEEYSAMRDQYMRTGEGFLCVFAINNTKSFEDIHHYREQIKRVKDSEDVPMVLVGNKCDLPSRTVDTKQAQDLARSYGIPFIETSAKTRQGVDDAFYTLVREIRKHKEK
Sequence (P62937 whole entry): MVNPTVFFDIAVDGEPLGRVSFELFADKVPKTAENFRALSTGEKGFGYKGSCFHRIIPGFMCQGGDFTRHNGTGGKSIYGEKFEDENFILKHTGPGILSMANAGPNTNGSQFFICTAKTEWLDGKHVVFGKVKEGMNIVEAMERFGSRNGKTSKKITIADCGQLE
Quantity: IC50

I'd like to know its IC50. The compound in question is C=CC(=O)N1CC[C@H](C(=O)N(C)[C@H](C(=O)N[C@H]2Cc3cc(cc(C(F)F)c3)-c3ccc4c(c3)c(c(-c3cccnc3[C@H](C)OC)n4CC)CC(C)(C)COC(=O)[C@@H]3CCCN(N3)C2=O)C(C)C)C1 (atropisomer, axis not shown) [Example A341] 0.1 to 1 µM

I'd like to know its IC50. The compound in question is CC#CC(=O)N1CC[C@H](C(=O)N(C)[C@H](C(=O)N[C@H]2Cc3nc(ns3)-c3ccc4c(c3)c(c(-c3cccnc3[C@H](C)OC)n4CC)CC(C)(C)COC(=O)[C@@H]3CCCN(N3)C2=O)C(C)C)C1 (atropisomer, axis not shown) [Example A289] 1 to 10 µM

I'd like to know its IC50. The compound in question is C=CC(=O)N1C[C@@H]2CN(C(=O)N(C)[C@H](C(=O)N[C@H]3Cc4nc(cs4)-c4ccc5c(c4)c(c(-c4cccnc4[C@H](C)OC)n5CC)CC(C)(C)COC(=O)[C@@H]4CCCN(N4)C3=O)C(C)C)[C@@H]2C1 (atropisomer, axis not shown) [Example A561] 0.1 to 1 µM

I'd like to know its IC50. The compound in question is CCn1c(-c2cccnc2[C@H](C)OC)c2c3cc(ccc31)N1CCO[C@@](C)(C[C@H](NC(=O)[C@H](C(C)C)N(C)C(=O)C3(F)CCN(C(=O)C#CC(C)(C)N(C)C)CC3)C(=O)N3CCC[C@H](N3)C(=O)OCC(C)(C)C2)C1 [Example A550] 0.1 to 1 µM

====

Please respond with reported IC50 for every item in the list.
target: KRAS G13D (Homo sapiens (Human), UniProt P01116+P62937, G13D); assay: Ras-Raf (BRAF RBD) disruption / FRET / MOA assay, KRAS G13D; type: biochemical; conditions: read-out: IC50* KRAS G13D FRET data
Sequence (P01116-2 other isoform, or with tags, fused parts or gaps G13D, one chain of several): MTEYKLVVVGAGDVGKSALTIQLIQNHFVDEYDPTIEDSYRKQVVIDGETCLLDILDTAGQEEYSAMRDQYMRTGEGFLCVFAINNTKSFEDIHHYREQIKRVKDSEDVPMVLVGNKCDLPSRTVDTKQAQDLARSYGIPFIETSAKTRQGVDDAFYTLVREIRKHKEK

I'd like to know its IC50. The compound in question is C=CC(=O)N1CCN(C(=O)N(C)[C@H](C(=O)N[C@H]2Cc3nc(cs3)-c3ccc4c(c3)c(c(-c3cccnc3[C@H](C)OC)n4CC)CC(C)(C)COC(=O)[C@@H]3CCCN(N3)C2=O)C(C)C)C[C@H]1C (atropisomer, axis not shown) 0.1 to 1 µM

I'd like to know its IC50. The compound in question is CCn1c(-c2cccnc2[C@H](C)OC)c2c3cc(ccc31)N1CCC[C@@H](C[C@H](NC(=O)[C@@H](COC3CN(C(=O)C#CC(C)(C)N(C)C)C3)C(C)C)C(=O)N3CCC[C@H](N3)C(=O)OCC(C)(C)C2)C1 (atropisomer, axis not shown) > 10 µM

I'd like to know its IC50. The compound in question is CCn1c(-c2cccnc2[C@H](C)OC)c2c3cc(ccc31)-c1csc(n1)C[C@H](NC(=O)[C@H](C(C)C)N(C)C(=O)[C@H]1CCN(C(=O)C#CCN3CCOCC3)C1)C(=O)N1CCC[C@H](N1)C(=O)OCC(C)(C)C2 (atropisomer, axis not shown) > 10 µM

I'd like to know its IC50. The compound in question is C=CC(=O)N1CCO[C@@H]2CCN(C(=O)N(C)[C@H](C(=O)N[C@H]3Cc4nc(cs4)-c4ccc5c(c4)c(c(-c4cccnc4[C@H](C)OC)n5CC)CC(C)(C)COC(=O)[C@@H]4CCCN(N4)C3=O)C(C)C)CC21 (some centres unmarked) 0.1 to 1 µM

I'd like to know its IC50. The compound in question is C=CC(=O)N1CC[C@@H](C(=O)N(C)[C@H](C(=O)N[C@H]2Cc3cccc(c3)-c3ccc4c(c3)c(c(-c3cccnc3[C@H](C)OC)n4CC)CC(C)(C)COC(=O)[C@@H]3CCCN(N3)C2=O)C(C)C)C1 (atropisomer, axis not shown) 1 to 10 µM

I'd like to know its IC50. The compound in question is C=CC(=O)Nc1ccc(C(=O)N(C)[C@H](C(=O)N[C@H]2Cc3cc(O)cc(c3)-c3ccc4c(c3)c(c(-c3cccnc3[C@H](C)OC)n4CC)CC(C)(C)COC(=O)[C@@H]3CCCN(N3)C2=O)C(C)C)cn1 (atropisomer, axis not shown) 0.1 to 1 µM

I'd like to know its IC50. The compound in question is C=CC(=O)N1CC[C@H](C(=O)N(C2CC2)[C@H](C(=O)N[C@H]2Cc3cccc(c3)-c3ccc4c(c3)c(c(-c3cccnc3[C@H](C)OC)n4CC)CC(C)(C)COC(=O)[C@@H]3CCCN(N3)C2=O)C(C)C)C1 (atropisomer, axis not shown) > 10 µM

I'd like to know its IC50. The compound in question is CCn1c(-c2cccnc2[C@H](C)OC)c2c3cc(ccc31)-c1csc(n1)C[C@H](NC(=O)[C@@H](COC1CN(C(=O)C#CC(C)(C)N(C)C)C1)C(C)C)C(=O)N1CCC[C@H](N1)C(=O)OCC(C)(C)C2 (atropisomer, axis not shown) > 10 µM
